- Tgt: Sodium-dependent serotonin transporter (Rattus norvegicus)
- Assay Name: Inhibitory activity against Serotonin transporter was determined for [3H]5-HT (serotonin) uptake by striated synaptosomes
- Format: subcellular, Brain
pIC50: −log10 of the molar value.
Use 7 as the dividing line for pIC50, with the line itself on the 1 side and lower values as -1.

molecule="CCC[C@H]1C(c2ccc(F)cc2)C[C@H]2CCC1N2C (stereo partly drawn)" tgt="Sodium-dependent serotonin transporter (Rattus norvegicus)" discrete_label=1
molecule=Cc1ccc([C@@H]2C[C@H]3CCC([C@@H]2c2ccccc2)N3C)cc1 tgt="Sodium-dependent serotonin transporter (Rattus norvegicus)" discrete_label=-1
molecule=CN1C2CC[C@@H]1C[C@@H](c1ccccc1)[C@H]2c1ccccc1 tgt="Sodium-dependent serotonin transporter (Rattus norvegicus)" discrete_label=-1
molecule=CCC[C@H]1C2CC[C@H](C[C@H]1c1ccccc1)N2C tgt="Sodium-dependent serotonin transporter (Rattus norvegicus)" discrete_label=-1
molecule=CCC[C@H]1C2CC[C@H](C[C@H]1c1ccc(C)cc1)N2C tgt="Sodium-dependent serotonin transporter (Rattus norvegicus)" discrete_label=1
molecule="CCCC[C@H]1C(c2ccc(C)cc2)C[C@H]2CCC1N2C (stereo partly drawn)" tgt="Sodium-dependent serotonin transporter (Rattus norvegicus)" discrete_label=1
molecule="CN1C2CC[C@@H]1CC(c1ccccc1)[C@@H]2c1ccccc1 (stereo partly drawn)" tgt="Sodium-dependent serotonin transporter (Rattus norvegicus)" discrete_label=-1
molecule="CCC[C@H]1C(c2ccc(C)cc2)C[C@H]2CCC1N2C (stereo partly drawn)" tgt="Sodium-dependent serotonin transporter (Rattus norvegicus)" discrete_label=1
molecule=CCCC[C@H]1C2CC[C@H](C[C@H]1c1ccc(C)cc1)N2C tgt="Sodium-dependent serotonin transporter (Rattus norvegicus)" discrete_label=1

====

Listed below: log10 of Ki values for each entry.
- Tgt: Sodium-dependent dopamine transporter (Rattus norvegicus, UniProt P23977)
- Assay Name: Binding affinity for [3H]DA (Dopamine transporter) uptake by striated synaptosomes
- Format: subcellular, Brain
Assay Metric: log10 of Ki (log10 of the value in nM)

compound=COC(=O)[C@@H]1C2CC[C@H](C[C@@H]1c1ccc(C)cc1)N2C obs_value=0.84
compound="Cc1ccc(C2C[C@H]3CCC([C@H]2c2ccccc2)N3C)cc1 (stereo not given in full)" obs_value=0.46
compound="CCC[C@H]1C(c2ccc(C)cc2)C[C@H]2CCC1N2C (stereo not given in full)" obs_value=0.04
compound="CN1C2CC[C@@H]1CC(c1ccccc1)[C@@H]2c1ccccc1 (stereo not given in full)" obs_value=1.46
compound=CCC[C@H]1C2CC[C@H](C[C@H]1c1ccccc1)N2C obs_value=1.48
compound="CCC[C@H]1C(c2ccc(F)cc2)C[C@H]2CCC1N2C (stereo not given in full)" obs_value=0.30
compound=CN1C2CC[C@@H]1C[C@@H](c1ccc(F)cc1)[C@H]2c1ccccc1 obs_value=0.66
compound="CCC[C@H]1C(c2ccccc2)C[C@H]2CCC1N2C (stereo not given in full)" obs_value=0.84
compound="CCCC[C@H]1C(c2ccc(C)cc2)C[C@H]2CCC1N2C (stereo not given in full)" obs_value=0.12
compound="COC(=O)[C@H]1C(c2ccccc2)C[C@H]2CCC1N2C (stereo not given in full)" obs_value=1.73
compound=CCC[C@H]1C2CC[C@H](C[C@H]1c1ccc(C)cc1)N2C obs_value=1.07
compound=Cc1ccc([C@@H]2C[C@H]3CCC([C@@H]2c2ccccc2)N3C)cc1 obs_value=0.62
compound=CCC[C@H]1C2CC[C@H](C[C@H]1c1ccc(F)cc1)N2C obs_value=1.08
compound=CN1C2CC[C@@H]1C[C@@H](c1ccccc1)[C@H]2c1ccccc1 obs_value=1.07
compound=CCCC[C@H]1C2CC[C@H](C[C@H]1c1ccc(C)cc1)N2C obs_value=1.00

====

# Uptake ratio annotations
- Tgt: Monoamine transporters; serotonin & dopamine (Rattus norvegicus) (UniProt P31652+P23977)
- Sequence (P23977 whole entry, looked up): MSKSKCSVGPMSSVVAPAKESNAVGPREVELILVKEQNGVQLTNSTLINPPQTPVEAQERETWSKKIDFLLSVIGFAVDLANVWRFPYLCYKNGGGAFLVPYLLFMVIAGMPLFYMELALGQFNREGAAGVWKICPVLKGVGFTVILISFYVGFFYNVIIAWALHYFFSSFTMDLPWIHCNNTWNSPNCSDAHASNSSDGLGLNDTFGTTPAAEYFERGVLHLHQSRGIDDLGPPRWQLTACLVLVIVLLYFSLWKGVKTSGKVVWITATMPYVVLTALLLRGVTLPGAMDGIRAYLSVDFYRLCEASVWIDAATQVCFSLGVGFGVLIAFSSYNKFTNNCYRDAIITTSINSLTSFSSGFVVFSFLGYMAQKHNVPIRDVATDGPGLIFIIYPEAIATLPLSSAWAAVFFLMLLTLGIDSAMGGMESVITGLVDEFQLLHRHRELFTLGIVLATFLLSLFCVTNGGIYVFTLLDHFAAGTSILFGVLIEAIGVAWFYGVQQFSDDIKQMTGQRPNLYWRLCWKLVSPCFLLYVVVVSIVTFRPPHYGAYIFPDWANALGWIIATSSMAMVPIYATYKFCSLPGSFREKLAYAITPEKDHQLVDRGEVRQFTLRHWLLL
- Sequence (P31652 whole entry, looked up): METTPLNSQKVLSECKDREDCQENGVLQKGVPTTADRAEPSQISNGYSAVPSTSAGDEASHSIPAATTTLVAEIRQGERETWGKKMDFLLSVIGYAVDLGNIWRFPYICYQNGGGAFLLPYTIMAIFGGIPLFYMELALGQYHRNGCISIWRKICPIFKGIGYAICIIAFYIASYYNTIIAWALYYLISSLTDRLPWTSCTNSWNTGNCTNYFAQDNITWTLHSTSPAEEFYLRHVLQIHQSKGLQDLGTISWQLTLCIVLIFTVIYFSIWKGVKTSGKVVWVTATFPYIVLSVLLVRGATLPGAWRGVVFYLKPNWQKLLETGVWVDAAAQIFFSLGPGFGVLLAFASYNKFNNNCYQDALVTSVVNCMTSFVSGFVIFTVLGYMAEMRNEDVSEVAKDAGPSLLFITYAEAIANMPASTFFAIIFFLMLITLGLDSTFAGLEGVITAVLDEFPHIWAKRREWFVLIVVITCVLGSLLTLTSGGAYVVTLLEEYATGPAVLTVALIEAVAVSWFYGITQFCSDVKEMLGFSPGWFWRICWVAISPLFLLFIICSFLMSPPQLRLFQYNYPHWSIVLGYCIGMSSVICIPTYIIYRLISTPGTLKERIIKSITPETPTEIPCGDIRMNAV
- Assay Name: Ratio of Ki value for 5-HT to that of DA.
- Type: protein assay
Assay Metric: Uptake ratio

compound=CCC[C@H]1C2CC[C@H](C[C@H]1c1ccc(F)cc1)N2C assay_metric="Uptake ratio" obs_value=8.2
compound="Cc1ccc(C2C[C@H]3CCC([C@H]2c2ccccc2)N3C)cc1 (stereo partly drawn)" assay_metric="Uptake ratio" obs_value=25.7
compound="CCC[C@H]1C(c2ccc(F)cc2)C[C@H]2CCC1N2C (stereo partly drawn)" assay_metric="Uptake ratio" obs_value=10.9

====

- Tgt: Sodium-dependent serotonin transporter (Rattus norvegicus)
- Assay Name: Inhibitory activity against Serotonin transporter was determined for [3H]5-HT (serotonin) uptake by striated synaptosomes
Reported IC50 values for a set of molecules
Assay Metric: IC50 (nM)

molecule="CCC[C@H]1C(c2ccccc2)C[C@H]2CCC1N2C (some centres undefined)" assay_metric=IC50 obs_value=95.4
molecule=CN1C2CC[C@@H]1C[C@@H](c1ccc(F)cc1)[C@H]2c1ccccc1 assay_metric=IC50 obs_value=134
molecule="Cc1ccc(C2C[C@H]3CCC([C@H]2c2ccccc2)N3C)cc1 (some centres undefined)" assay_metric=IC50 obs_value=80.8
molecule=CCC[C@H]1C2CC[C@H](C[C@H]1c1ccc(F)cc1)N2C assay_metric=IC50 obs_value=109
